- measurement target: EGFR(WT) (Homo sapiens)
- Sequence (P00533 25-1210): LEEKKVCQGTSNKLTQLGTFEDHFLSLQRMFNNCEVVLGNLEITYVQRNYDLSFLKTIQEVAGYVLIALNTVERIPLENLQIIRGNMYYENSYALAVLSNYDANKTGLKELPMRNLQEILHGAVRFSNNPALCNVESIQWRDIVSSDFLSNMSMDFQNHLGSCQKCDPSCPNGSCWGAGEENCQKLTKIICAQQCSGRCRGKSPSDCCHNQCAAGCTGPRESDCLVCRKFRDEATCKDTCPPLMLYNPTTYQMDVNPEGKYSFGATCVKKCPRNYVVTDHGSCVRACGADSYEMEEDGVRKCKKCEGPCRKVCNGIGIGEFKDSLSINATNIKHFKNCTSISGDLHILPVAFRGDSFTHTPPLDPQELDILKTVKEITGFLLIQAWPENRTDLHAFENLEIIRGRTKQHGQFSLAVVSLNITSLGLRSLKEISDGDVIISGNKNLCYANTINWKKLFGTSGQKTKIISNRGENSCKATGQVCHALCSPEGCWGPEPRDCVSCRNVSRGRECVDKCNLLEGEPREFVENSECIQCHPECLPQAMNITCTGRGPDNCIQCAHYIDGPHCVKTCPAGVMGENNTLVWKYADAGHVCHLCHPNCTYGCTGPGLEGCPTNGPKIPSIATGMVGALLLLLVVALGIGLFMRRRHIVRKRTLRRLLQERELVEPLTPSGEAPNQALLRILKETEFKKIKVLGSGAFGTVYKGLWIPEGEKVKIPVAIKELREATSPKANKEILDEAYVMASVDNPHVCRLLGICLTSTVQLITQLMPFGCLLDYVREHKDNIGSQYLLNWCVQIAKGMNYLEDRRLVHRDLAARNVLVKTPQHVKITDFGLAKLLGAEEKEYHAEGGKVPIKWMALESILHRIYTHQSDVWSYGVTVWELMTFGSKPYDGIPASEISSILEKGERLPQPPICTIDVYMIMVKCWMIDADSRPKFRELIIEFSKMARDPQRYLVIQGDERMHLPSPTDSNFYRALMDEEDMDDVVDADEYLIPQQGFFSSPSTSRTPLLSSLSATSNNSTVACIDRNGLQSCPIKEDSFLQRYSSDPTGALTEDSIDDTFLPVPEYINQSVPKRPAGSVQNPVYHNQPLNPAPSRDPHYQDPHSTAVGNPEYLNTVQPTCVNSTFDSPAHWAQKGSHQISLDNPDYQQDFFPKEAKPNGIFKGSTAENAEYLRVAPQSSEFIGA
- test method notes: ELISA kinase activity detection, EGFR(WT)
- Type: biochemical
- condition description: ELISA-based EGFR-TK assay, ATP 5 μM; mean ± SD of at least two determinations
observed property: IC50 (nM)

Solved cases (2 shown):
COc1cc2c(Nc3ccc(NC(=O)C(c4ccccc4)N4Cc5ccccc5C4=O)cc3F)ncnc2cc1OCC1CCN(C)CC1 (centres unmarked)    1.3
COc1cc2c(Nc3ccc(NC(=O)C(c4ccccc4)c4ccccc4)cc3F)ncnc2cc1OCC1CCN(C)CC1    5.6

1: COc1cc2c(Nc3cc(NC(=O)CC4Cc5ccccc5C4)ccc3F)ncnc2cc1OCC1CCN(C)CC1
2: COc1cc2c(Nc3ccc(NC(=O)C(c4ccccc4)C(C)C)cc3F)ncnc2cc1OCC1CCN(C)CC1 (centres unmarked)
3: COc1cc2c(Nc3ccc(OCc4ccccc4)cc3)ncnc2cc1OCC1CCN(C)CC1
Ranking field: IC50; order: falling. // list labels; follow requested order
1, 2, 3
(1: 1100 nM, 2: 23.1 nM, 3: 2.6 nM)

I: COc1cc2nc(N)nc(Nc3ccc(NC(=O)C(c4ccccc4)N4Cc5ccccc5C4=O)cc3F)c2cc1OC (centres unmarked)
II: COc1cc2c(Nc3ccc(NC(=O)c4ccccc4)cc3F)ncnc2cc1OCC1CCN(C)CC1
I'd appreciate it if you could identify which of I and II has the greater IC50. Pick one and reply with its label.
I
(I: 388 nM, II: 59.9 nM)

I: COc1cc2c(Nc3ccc(NC(=O)C(C4CCCCC4)N4Cc5ccccc5C4=O)cc3F)ncnc2cc1OCC1CCN(C)CC1 (centres unmarked)
II: COc1cc2c(Nc3ccc(NC(=O)CC4Cc5ccccc5C4)cc3F)ncnc2cc1OCC1CCN(C)CC1
III: COc1cc2c(Nc3cc(NC(=O)C(c4ccccc4)N4Cc5ccccc5C4=O)ccc3F)ncnc2cc1OCC1CCN(C)CC1 (centres unmarked)
IV: COc1cc2c(Nc3ccccc3P(C)(C)=O)ncnc2cc1OCC1CCN(C)CC1
V: COc1cc2ncnc(Nc3ccc(NC(=O)C(c4ccccc4)N4Cc5ccccc5C4=O)cc3F)c2cc1OCC1CCN(C)CC1 (centres unmarked)
Ranking field: IC50; order: falling. // list labels; follow requested order
IV, II, I, III, V

a: COc1cc2c(Nc3ccc(NC(=O)C(c4cc(F)ccc4F)N4Cc5ccccc5C4=O)cc3F)ncnc2cc1OCC1CCN(C)CC1 (centres unmarked)
b: COc1cc2c(Nc3cc(NC(=O)Cc4ccccc4)ccc3F)ncnc2cc1OCC1CCN(C)CC1
c: COc1cc2ncnc(Nc3ccc(NC(=O)C(c4ccccc4)N4Cc5ccccc5C4=O)cc3F)c2cc1OC (centres unmarked)
Ranking field: IC50; order: falling. // list labels; follow requested order
b, c, a

----------
- measurement target: EGFR L858R/T790M (LR/TM) (Homo sapiens, UniProt P00533, L858R/T790M)
- Sequence (P00533 25-1210 T790M/L858R): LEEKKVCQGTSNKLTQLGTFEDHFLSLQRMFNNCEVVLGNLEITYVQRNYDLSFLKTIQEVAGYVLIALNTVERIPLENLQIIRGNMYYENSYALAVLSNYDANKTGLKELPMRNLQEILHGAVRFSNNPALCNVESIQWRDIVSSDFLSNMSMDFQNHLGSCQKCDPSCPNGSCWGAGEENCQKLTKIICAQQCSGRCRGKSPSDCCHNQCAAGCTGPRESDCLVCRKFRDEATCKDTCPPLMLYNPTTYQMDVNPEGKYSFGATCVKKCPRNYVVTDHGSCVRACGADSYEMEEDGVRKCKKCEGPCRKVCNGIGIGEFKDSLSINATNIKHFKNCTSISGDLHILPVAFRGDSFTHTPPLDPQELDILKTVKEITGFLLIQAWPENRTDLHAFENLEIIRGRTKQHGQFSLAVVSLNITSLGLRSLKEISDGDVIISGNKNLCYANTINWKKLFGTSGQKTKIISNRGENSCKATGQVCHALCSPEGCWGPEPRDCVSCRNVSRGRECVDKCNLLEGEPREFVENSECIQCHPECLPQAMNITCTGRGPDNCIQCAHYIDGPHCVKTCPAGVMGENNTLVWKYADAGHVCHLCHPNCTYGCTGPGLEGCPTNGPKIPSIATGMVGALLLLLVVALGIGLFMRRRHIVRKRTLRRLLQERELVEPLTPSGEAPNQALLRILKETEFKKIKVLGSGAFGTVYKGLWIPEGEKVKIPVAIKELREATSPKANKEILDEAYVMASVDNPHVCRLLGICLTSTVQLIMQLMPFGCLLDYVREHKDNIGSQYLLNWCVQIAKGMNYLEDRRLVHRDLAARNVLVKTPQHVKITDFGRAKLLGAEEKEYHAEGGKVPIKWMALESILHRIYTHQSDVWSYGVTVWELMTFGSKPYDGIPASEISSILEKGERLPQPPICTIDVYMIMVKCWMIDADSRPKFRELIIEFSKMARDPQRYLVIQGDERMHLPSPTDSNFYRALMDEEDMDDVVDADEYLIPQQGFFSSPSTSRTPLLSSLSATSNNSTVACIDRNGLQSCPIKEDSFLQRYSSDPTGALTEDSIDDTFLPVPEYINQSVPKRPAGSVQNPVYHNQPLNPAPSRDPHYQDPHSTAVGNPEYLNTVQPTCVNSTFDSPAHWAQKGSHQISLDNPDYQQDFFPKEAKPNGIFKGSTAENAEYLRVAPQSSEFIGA
- test method notes: ELISA kinase activity detection, EGFR double mutant
- Type: biochemical
- condition description: ELISA-based EGFR-TK assay, ATP 5 μM, mean ± SD
observed property: IC50 (nM)

COc1cc2c(Nc3ccc(NC(=O)[C@@H](c4ccccc4)N4Cc5ccccc5C4=O)cc3F)ncnc2cc1OCC1CCN(C)CC1 [Example 20]    6.4
COc1cc2c(Nc3ccc(NC(=O)C(C)c4ccccc4)cc3F)ncnc2cc1OCC1CCN(C)CC1 (centres unmarked) [Example 9]    2560
COc1cc2c(Nc3cc(NC(=O)CC4Cc5ccccc5C4)ccc3F)ncnc2cc1OCC1CCN(C)CC1 [Example 6]    3030
COc1cc2c(Nc3ccc(NC(=O)c4ccccc4)cc3F)ncnc2cc1OCC1CCN(C)CC1 [Example 1]    6630

1: COc1cc2c(Nc3ccc(NC(=O)C(c4ccccc4)C(C)C)cc3F)ncnc2cc1OCC1CCN(C)CC1 (centres unmarked) [Example 10]
2: COc1cc2c(Nc3ccc(NC(=O)Cc4ccccc4)cc3F)ncnc2cc1OCC1CCN(C)CC1 [Example 3]
3: COCCOc1cc2ncnc(Nc3ccc(NC(=O)C(c4ccccc4)N4Cc5ccccc5C4=O)cc3F)c2cc1OCCOC (centres unmarked) [Example 26]
4: COc1cc2c(Nc3ccc(NC(=O)CC4Cc5ccccc5C4)cc3F)ncnc2cc1OCC1CCN(C)CC1 [Example 5]
Ranking field: IC50; order: falling. // list labels; follow requested order
2, 1, 4, 3
(2: 7560 nM, 1: 2030 nM, 4: 1380 nM, 3: 1.5 nM)

----------
- measurement target: EGFR L858R/T790M (LR/TM) (Homo sapiens, UniProt P00533, L858R/T790M)
- test method notes: ELISA kinase activity detection, EGFR double mutant
- Assay type: biochemical
- condition description: ELISA-based EGFR-TK assay, ATP 5 μM, mean ± SD
observed property: IC50

Solved cases (2 shown):
CN1CCC(COc2ccc3c(Nc4ccccc4P(C)(C)=O)ncnc3c2)CC1    > 10000 nM
COc1cc2ncnc(Nc3cc(NC(=O)c4ccccc4)ccc3F)c2cc1OC    > 10000 nM

Here is the next item to consider.
// returns reported IC50 for input COc1cc2c(Nc3cc(NC(=O)c4ccccc4)ccc3F)ncnc2cc1OCC1CCN(C)CC1
> 10000 nM
